Cited source: patent US20240294651A1

# experimental target: T1, terbium-labelled SNAP-CXCR4 on HEK-293 cells (Cisbio C1TT1CXCR4) (human, UniProt P61072 1-352 (Pan troglodytes entry), terbium label on the SNAP tag)
# T1 construct: Bought assay-ready cells; also called CXCR4 expressing cells; not shown: SNAP tag
# T1 sequence (P61072 whole entry): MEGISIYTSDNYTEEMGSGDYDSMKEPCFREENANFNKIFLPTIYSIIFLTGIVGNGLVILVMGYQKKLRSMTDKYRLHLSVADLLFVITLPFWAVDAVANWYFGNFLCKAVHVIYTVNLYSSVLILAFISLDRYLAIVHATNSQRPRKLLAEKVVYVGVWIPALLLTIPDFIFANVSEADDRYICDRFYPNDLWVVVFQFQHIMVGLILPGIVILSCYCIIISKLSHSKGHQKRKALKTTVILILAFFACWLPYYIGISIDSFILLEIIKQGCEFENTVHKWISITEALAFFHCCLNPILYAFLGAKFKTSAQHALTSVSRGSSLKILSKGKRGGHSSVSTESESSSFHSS
# measurement protocol: TR-FRET (Tag-lite) competition with AlexaFluor 647-CXCL12 on terbium-labelled SNAP-CXCR4 HEK-293 cells
parameter: IC50 (nM)
Enter your answer as a number in nM; do not include the unit.

Quote IC50 reported for CL-82562 (antibody, human IgG4 S228P, kappa, V domains shown, Tested in human IgG4-PE format) VH: QVQLVESGGGVVQPGRSLRLSCTASGFTFSNYAMHWVRQAPGKGLEWVAVISYDGSNKYCADSVKGRFTISRDNSKNTLYLQMNSLRAEDTAVYYCARGPLARRHYYYYGMDVWGQGTTVTVSS VL: DIQMTQSPSSLSASVGDRVTITCRASQGIRNDLGWYQQKPGKAPKRLIYGASSLQSGVPSRFSGSGSGTEFTLTISSLQPEDFATYYCLQHNSYPRTFGQGTKVEIKR please.
0.86

Quote IC50 reported for CL-82495 (antibody, human IgG4 S228P, kappa, V domains shown, Tested in human IgG4-PE format) VH: QVQLVESGGGVVQPGRSLRLSCEASGFTLSSYGMHWVRQAPGKGLEWVAVIWNDGSNKYSADSVKGRFTISRDNSKNTLYLQMNRLRAEDTAVYYCARGGGYYGSGSHYRGYYYYGMDVWGQGTTVTVSS VL: DIQMTQSPSSLSASVGDRVTITCRASQGIRNDLGWYQQKPGKAPKRLIYAASSLQSGVPSRFSGSGSGTEFTLTISSLQPEDFATYYCLQHNSYPWTFGQGTKVEIKR please.
1.71
